Let's look at some compounds and their measured fold change.
Tested on: YBR084C-A
Assay: GFP reporter expression in transducer deletion yeast, mechanism study for yeast TOR pathway modulator project, S. cerevisiae, transducer mutant strains, GFP-tagged proteins (AID 504481);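 also: 1 = DMSO wells as ratio of mean channel GFP fluorescence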
Conditions: S. cerevisiae transducer mutants, GFP-fusion expression, flow cytometry, 3 h
Activity calls are given as the source filed them.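 The calls were made as follows: active = fold change below 0.65 in a panel strain, matching the primary screen cutoff; inactive = the rest.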

- Compound: "COc1ccc(/C=C/C(=O)NC(=S)NNC(=O)c2cnccn2)cc1"
  fold change: "0.936 (inactive)"
- Compound: "O=C(CCc1ccccc1)NNC(=S)NC(=O)c1ccccc1"
  fold change: "1.22 (inactive)"
- Compound: "O=C(Oc1ccnc2cc(Cl)ccc12)N1CCCCCC1"
  fold change: "1.09 (inactive)"
- Compound: "C/C(=N\\NC(=O)c1ccc(C(C)(C)C)cc1)c1ccccn1"
  fold change: "0.975 (inactive)"
- Compound: "O=C(OCC(=O)N1CCN(C(=O)c2ccco2)CC1)c1cc(-c2cccc(Br)c2)nc2ccccc12"
  fold change: "0.779 (inactive)"
- Compound: "Cc1ccc(C2=NOC(=O)/C2=C\\c2ccc(C)o2)cc1"
  fold change: "0.943 (inactive)"
- Compound: "CC1=NN(c2ccccc2)C(=O)C1C(c1ccccc1[N+](=O)[O-])C(C#N)C#N (configuration not stated)"
  fold change: "1.09 (inactive)"
- Compound: "CC(C)(C)C(=O)C(Cl)C(=O)Nc1ccccc1 (configuration not stated)"
  fold change: "0.877 (inactive)"
- Compound: "O=[N+]([O-])c1ccc(O)c2ncccc12"
  fold change: "1.19 (inactive)"
- Compound: "Cc1ccc(C(c2cc(Cl)c3cccnc3c2O)N2CCN(C)CC2)cc1 (configuration not stated)"
  fold change: "1.03 (inactive)"
- Compound: "c1ccc(-c2cccc(-c3ccccn3)n2)nc1"
  fold change: "0.903 (inactive)"
- Compound: "O=[N+]([O-])c1cc(S(=O)(=O)C(F)(F)F)ccc1Sc1nc2ccccc2s1"
  fold change: "1.03 (inactive)"
- Compound: "O=C(OCn1ncc(Br)c(Br)c1=O)c1ccc(F)cc1"
  fold change: "1.02 (inactive)"
- Compound: "O=C(Oc1c(Cl)cc(Cl)c2cccnc12)c1ccco1"
  fold change: "1.14 (inactive)"
- Compound: "O=C(OCn1ncc(Br)c(Br)c1=O)c1c(F)cccc1F"
  fold change: "0.936 (inactive)"
- Compound: "CSC1=NS(=O)(=O)c2c(C)nn(C)c2S1"
  fold change: "0.857 (inactive)"
- Compound: "CC(Oc1ccc(Cl)cc1)C(=O)NNC(=S)NC(=O)c1ccco1 (configuration not stated)"
  fold change: "1.09 (inactive)"
- Compound: "CC(C)(C)n1nc(-c2ccc(Cl)cc2)c2c(N)ncnc21"
  fold change: 0.489
- Compound: "CO[C@H]1C[C@@H]2CC[C@@H](C)[C@@](O)(O2)C(=O)C(=O)N2CCCC[C@H]2C(=O)O[C@H]([C@H](C)C[C@@H]2CC[C@@H](O)[C@H](OC)C2)CC(=O)[C@H](C)/C=C(\\C)[C@@H](O)[C@@H](OC)C(=O)[C@H](C)C[C@H](C)/C=C/C=C/C=C/1C"
  fold change: 0.616
- Compound: "Clc1ccc(N=c2ssnc2Cl)cc1"
  fold change: "0.99 (inactive)"
- Compound: "CN1CCN(C(c2ccc(C(F)(F)F)cc2)c2ccc3cccnc3c2O)CC1 (configuration not stated)"
  fold change: "0.878 (inactive)"
- Compound: "CCCOc1ccc(C(=O)NNC(=S)NC(=O)CC)cc1"
  fold change: "1.22 (inactive)"
- Compound: "O=C1ON=C(c2ccccc2)/C1=C/c1ccco1"
  fold change: "1.02 (inactive)"
- Compound: "O=[N+]([O-])c1cc(Cl)c2cccnc2c1O"
  fold change: "1.05 (inactive)"
- Compound: "O=C(NC(=S)NNC(=O)c1cnccn1)c1ccc(F)cc1"
  fold change: "0.875 (inactive)"
- Compound: "COc1ccc([N+](=O)[O-])c(S(=O)(=O)c2ccccc2)n1"
  fold change: "0.944 (inactive)"
- Compound: "Cc1ccc(S(=O)(=O)c2ncccc2[N+](=O)[O-])cc1"
  fold change: "0.924 (inactive)"
- Compound: "O=[N+]([O-])c1cc(O)c2ncccc2c1"
  fold change: "0.972 (inactive)"
- Compound: "O=C(Oc1c(Cl)cc(Cl)c2cccnc12)c1cccc([N+](=O)[O-])c1"
  fold change: "1.18 (inactive)"
- Compound: "O=C1ON=C(c2ccccc2)/C1=C\\c1ccco1"
  fold change: "0.921 (inactive)"
- Compound: "CC(=O)c1ccc(N2CCN(C(=O)c3ccc(Br)cc3)CC2)c(F)c1"
  fold change: "1.27 (inactive)"
- Compound: "O=[N+]([O-])c1ccc(S(=O)(=O)c2cccc(C(F)(F)F)c2)nc1"
  fold change: "0.793 (inactive)"
- Compound: "CC(=O)SC(C[N+](=O)[O-])c1cn(C(C)=O)c2ccccc12 (configuration not stated)"
  fold change: "1.08 (inactive)"
- Compound: "Cn1ncc(S(=O)(=O)Cc2ccccc2)c(Cl)c1=O"
  fold change: "0.743 (inactive)"
- Compound: "CCCCC(=O)NNC(=S)NC(=O)c1ccc(C)cc1"
  fold change: "1.27 (inactive)"
- Compound: "COc1ccc(C(=O)NNC(=S)NC(=O)/C=C/c2cccs2)cc1"
  fold change: "1.23 (inactive)"
- Compound: "Cc1ccc(C(=O)NNC(=S)NC(=O)COc2ccccc2)cc1"
  fold change: "1.19 (inactive)"
- Compound: "Cc1ccc(S(=O)(=O)c2ccc([N+](=O)[O-])cn2)cc1"
  fold change: "0.894 (inactive)"
- Compound: "N/C(Cc1ccc(Cl)cc1)=N\\OC(=O)c1cccc2ccccc12"
  fold change: "0.913 (inactive)"
- Compound: "CCOC(=O)c1c(C)oc2c1c(C(c1cccnc1)N1CCOCC1)c(O)c1ccccc12 (configuration not stated)"
  fold change: "0.759 (inactive)"
- Compound: "Cc1ccc(/C=C2/C(=O)ON=C2c2ccccc2)o1"
  fold change: "0.942 (inactive)"
- Compound: "CCc1ccc(OCC(=O)NNC(=S)NC(=O)C2CC2)c(Br)c1"
  fold change: "1.09 (inactive)"
- Compound: "COc1ccc([N+](=O)[O-])c(S(=O)(=O)c2ccc(Cl)cc2)n1"
  fold change: "0.841 (inactive)"
- Compound: "CCSc1nnc(NC(=O)c2ccccn2)s1"
  fold change: "0.968 (inactive)"
- Compound: "CC(C)(C)C(=O)NC(=S)NNC(=O)c1ccc(-c2ccccc2)cc1"
  fold change: "1.19 (inactive)"
- Compound: "O=S(=O)(CCN(CCS(=O)(=O)C(F)(F)F)CC1CCCO1)C(F)(F)F (configuration not stated)"
  fold change: "0.989 (inactive)"
- Compound: "Cc1cc(C(=O)Nc2nc(-c3ccccn3)cs2)ccc1[N+](=O)[O-]"
  fold change: "0.967 (inactive)"

###

Test system: YCR005C
Assay: GFP reporter expression in transducer deletion yeast, mechanism study for yeast TOR pathway modulator project, S. cerevisiae, transducer mutant strains, GFP-tagged proteins (AID 504481);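 also: 1 = DMSO wells as ratio of mean channel GFP fluorescence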
Conditions: S. cerevisiae transducer mutants, GFP-fusion expression, flow cytometry, 3 h
Please use Met for fold change under 1 and Not met for everything else, ties included.

- Molecule: "C/C(=N\\NC(=O)c1ccc(C(C)(C)C)cc1)c1ccccn1"
  Category Label: "Not met"
- Molecule: "CCCOc1ccc(C(=O)NNC(=S)NC(=O)CC)cc1"
  Category Label: "Not met"
- Molecule: "Cc1ccc(C(c2cc(Cl)c3cccnc3c2O)N2CCN(C)CC2)cc1 (configuration not stated)"
  Category Label: "Met"
- Molecule: "N/C(Cc1ccc(Cl)cc1)=N\\OC(=O)c1cccc2ccccc12"
  Category Label: "Not met"
- Molecule: "Cc1cc(C(=O)Nc2nc(-c3ccccn3)cs2)ccc1[N+](=O)[O-]"
  Category Label: "Met"
- Molecule: "O=C1ON=C(c2ccccc2)/C1=C/c1ccco1"
  Category Label: "Not met"
- Molecule: "CC(C)(C)C(=O)NC(=S)NNC(=O)c1ccc(-c2ccccc2)cc1"
  Category Label: "Not met"
- Molecule: "CC(=O)SC(C[N+](=O)[O-])c1cn(C(C)=O)c2ccccc12 (configuration not stated)"
  Category Label: "Met"
- Molecule: "COc1ccc(C(=O)NNC(=S)NC(=O)/C=C/c2cccs2)cc1"
  Category Label: "Not met"
- Molecule: "O=C(CCc1ccccc1)NNC(=S)NC(=O)c1ccccc1"
  Category Label: "Not met"
- Molecule: "O=[N+]([O-])c1cc(Cl)c2cccnc2c1O"
  Category Label: "Met"
- Molecule: "O=[N+]([O-])c1cc(S(=O)(=O)C(F)(F)F)ccc1Sc1nc2ccccc2s1"
  Category Label: "Not met"
- Molecule: "COc1ccc([N+](=O)[O-])c(S(=O)(=O)c2ccc(Cl)cc2)n1"
  Category Label: "Met"
- Molecule: "CC(=O)c1ccc(N2CCN(C(=O)c3ccc(Br)cc3)CC2)c(F)c1"
  Category Label: "Not met"
- Molecule: "Cc1ccc(S(=O)(=O)c2ncccc2[N+](=O)[O-])cc1"
  Category Label: "Met"
- Molecule: "c1ccc(-c2cccc(-c3ccccn3)n2)nc1"
  Category Label: "Met"
- Molecule: "O=[N+]([O-])c1ccc(O)c2ncccc12"
  Category Label: "Not met"
- Molecule: "CCOC(=O)c1c(C)oc2c1c(C(c1cccnc1)N1CCOCC1)c(O)c1ccccc12 (configuration not stated)"
  Category Label: "Not met"
- Molecule: "Cc1ccc(C2=NOC(=O)/C2=C\\c2ccc(C)o2)cc1"
  Category Label: "Not met"
- Molecule: "O=C(Oc1c(Cl)cc(Cl)c2cccnc12)c1ccco1"
  Category Label: "Not met"
- Molecule: "O=[N+]([O-])c1cc(O)c2ncccc2c1"
  Category Label: "Met"
- Molecule: "O=C(NC(=S)NNC(=O)c1cnccn1)c1ccc(F)cc1"
  Category Label: "Met"
- Molecule: "O=C(Oc1ccnc2cc(Cl)ccc12)N1CCCCCC1"
  Category Label: "Met"
- Molecule: "Cc1ccc(/C=C2/C(=O)ON=C2c2ccccc2)o1"
  Category Label: "Not met"
- Molecule: "CC(C)(C)n1nc(-c2ccc(Cl)cc2)c2c(N)ncnc21"
  Category Label: "Met"
- Molecule: "Cc1ccc(C(=O)NNC(=S)NC(=O)COc2ccccc2)cc1"
  Category Label: "Not met"
- Molecule: "CCSc1nnc(NC(=O)c2ccccn2)s1"
  Category Label: "Met"
- Molecule: "O=C(OCC(=O)N1CCN(C(=O)c2ccco2)CC1)c1cc(-c2cccc(Br)c2)nc2ccccc12"
  Category Label: "Not met"
- Molecule: "CC(Oc1ccc(Cl)cc1)C(=O)NNC(=S)NC(=O)c1ccco1 (configuration not stated)"
  Category Label: "Not met"
- Molecule: "O=C(OCn1ncc(Br)c(Br)c1=O)c1c(F)cccc1F"
  Category Label: "Not met"
- Molecule: "Cc1ccc(S(=O)(=O)c2ccc([N+](=O)[O-])cn2)cc1"
  Category Label: "Not met"
- Molecule: "CO[C@H]1C[C@@H]2CC[C@@H](C)[C@@](O)(O2)C(=O)C(=O)N2CCCC[C@H]2C(=O)O[C@H]([C@H](C)C[C@@H]2CC[C@@H](O)[C@H](OC)C2)CC(=O)[C@H](C)/C=C(\\C)[C@@H](O)[C@@H](OC)C(=O)[C@H](C)C[C@H](C)/C=C/C=C/C=C/1C"
  Category Label: "Not met"
- Molecule: "COc1ccc([N+](=O)[O-])c(S(=O)(=O)c2ccccc2)n1"
  Category Label: "Met"
- Molecule: "CC(C)(C)C(=O)C(Cl)C(=O)Nc1ccccc1 (configuration not stated)"
  Category Label: "Not met"
- Molecule: "CSC1=NS(=O)(=O)c2c(C)nn(C)c2S1"
  Category Label: "Met"
- Molecule: "O=C1ON=C(c2ccccc2)/C1=C\\c1ccco1"
  Category Label: "Not met"
- Molecule: "O=S(=O)(CCN(CCS(=O)(=O)C(F)(F)F)CC1CCCO1)C(F)(F)F (configuration not stated)"
  Category Label: "Not met"
- Molecule: "O=C(OCn1ncc(Br)c(Br)c1=O)c1ccc(F)cc1"
  Category Label: "Not met"
- Molecule: "COc1ccc(/C=C/C(=O)NC(=S)NNC(=O)c2cnccn2)cc1"
  Category Label: "Not met"
- Molecule: "O=C(Oc1c(Cl)cc(Cl)c2cccnc12)c1cccc([N+](=O)[O-])c1"
  Category Label: "Not met"
- Molecule: "Cn1ncc(S(=O)(=O)Cc2ccccc2)c(Cl)c1=O"
  Category Label: "Not met"
- Molecule: "O=[N+]([O-])c1ccc(S(=O)(=O)c2cccc(C(F)(F)F)c2)nc1"
  Category Label: "Not met"
- Molecule: "CCc1ccc(OCC(=O)NNC(=S)NC(=O)C2CC2)c(Br)c1"
  Category Label: "Not met"
- Molecule: "CN1CCN(C(c2ccc(C(F)(F)F)cc2)c2ccc3cccnc3c2O)CC1 (configuration not stated)"
  Category Label: "Met"

Cited source for all entries: PubChem BioAssay AID504481
